System: NCI-H226 lung
Assay: NCI tumour cell line growth inhibition, 48 h
Examples of compounds with documented TGI follow.
Readout label: TGI

Compound | Target system | Result
CCN(CC)C(=S)SNCCc1ccc(S(N)(=O)=O)cc1 | NCI-H226 lung | > 84.7 µM
N=C1N=C(N)c2cc3c(cc21)SCCSCCCSCCS3 | NCI-H226 lung | > 73.2 µM
O=C(CCCn1ccnc1[N+](=O)[O-])NCCn1cnc([N+](=O)[O-])c1 | NCI-H226 lung | > 100 µM
Cc1cc[c-]cc1.Fc1c[c-]c(-c2ccccn2)c(F)c1.N#CCC[PH+](CCC#N)c1ccccc1.[Pt+2] | NCI-H226 lung | 7.06 µM
O=C(Cc1ccc(/C=C/C(=O)c2ncc[nH]2)cc1)Nc1ccc(Br)cc1 | NCI-H226 lung | 10.1 µM
COc1cc2c3c(cc(Cl)nc3c1OC)C(O)(CC(C)=O)C(=O)N2 (stereo unspecified) | NCI-H226 lung | > 57.3 µM
O=C(c1ccc(Cl)cc1)N(C(=S)N1CCN(c2ccccn2)CC1)c1ccccc1 | NCI-H226 lung | > 100 µM
Oc1c(I)cc(I)cc1CNCCCN(Cc1ccccn1)Cc1ccccn1 | NCI-H226 lung | 2 µM
CCN(CC)C(=O)c1c(N2CCOCC2)cc(N(CC)CC)oc1=O | NCI-H226 lung | > 100 µM
COc1ccc(N2CCN(c3ccc4c(c3)NCC(=O)N4)CC2)cc1 | NCI-H226 lung | > 100 µM
Cc1ccc(S(=O)(=O)n2cc(-c3cnc(N)c(Br)n3)c3ccccc32)cc1 | NCI-H226 lung | > 100 µM
CC(=O)O[C@H]1CC[C@@]2(C)C(=CC[C@@H]3[C@@H]2CC[C@]2(C)c4nc(N)c(C#N)cc4C[C@@H]32)C1 | NCI-H226 lung | > 100 µM
COc1cc2c(cc1OCCCCC(=O)Nc1ccc(-c3nc4ccccc4s3)cc1)N=C[C@@H]1CCCN1C2=O | NCI-H226 lung | 7.83 µM
COC(=O)C1(NC(=O)C(N)CC(=O)O)C(C)C1C (stereo unspecified) | NCI-H226 lung | > 100 µM
Sc1nnc(-c2ccccc2Nc2ccccc2-c2nnc(S)n2-c2ccccc2)n1-c1ccccc1 | NCI-H226 lung | > 100 µM
Cc1ccc(O)c(Cc2nc3ccccc3nc2-c2cccc(Br)c2)c1 | NCI-H226 lung | > 100 µM
COc1ccc2[nH]c(C(=O)N3CC(CCl)c4ccc([N+](=O)[O-])cc43)cc2c1 (stereo unspecified) | NCI-H226 lung | > 100 µM
CSc1nc2c(nc(N)n2C2OCC(O)C(O)C2O)c(=O)[nH]1 (stereo unspecified) | NCI-H226 lung | > 100 µM
COC(=O)C1=C(OC(=O)/C(=C/c2ccc(Cl)cc2)c2ccccc2)C(C(=O)OC)[C@@]2(O)[C@@H](C(=O)OC)[C@H](C)C[C@@H]1[C@@H]2C(=O)OC (stereo partly specified) | NCI-H226 lung | > 100 µM
CC[C@@]1(O)C(=O)OCc2c1cc1n(c2=O)Cc2c-1nc1ccccc1c2/C=N\NC(=O)C(N)CS (stereo partly specified) | NCI-H226 lung | 34.1 µM
O=C1CC(c2ccccc2)Cc2nc3ccc(Cl)cc3cc21 (stereo unspecified) | NCI-H226 lung | > 23.6 µM
CCOC(=O)Nc1nc2c(F)c(F)c(F)cc2s1 | NCI-H226 lung | > 100 µM
CC(C)C(/C=C/c1ccccc1)=N\NC(=O)N/N=C(/C=C/c1ccccc1)C(C)C | NCI-H226 lung | 55.4 µM
CCOC(=O)/C=C(/C(=O)OCC)n1c(=O)c(C)cn(C2CC(N=[N+]=[N-])C(CO)O2)c1=O (stereo unspecified) | NCI-H226 lung | > 100 µM
Cc1cccc2c(N)c3cccc(C(=O)NCC[N+](C)(C)Cc4sc(N5CCOCC5)nc4[N+](=O)[O-])c3nc12 | NCI-H226 lung | 17.4 µM
CC1(C)Oc2ccc(Cl)cc2C12CC2 | NCI-H226 lung | 32.2 µM
Clc1ccccc1-c1nc2ccccc2[nH]1 | NCI-H226 lung | > 100 µM
CC1=C(C(=O)Nc2ccccc2C)C(c2ccc(N(C)C)cc2)C(C(=O)Nc2ccccc2C)=C(C)N1 | NCI-H226 lung | > 100 µM
CSc1nc(Cl)c(Br)c(Nc2c[nH]c(=O)[nH]c2=O)n1 | NCI-H226 lung | 41.7 µM
CC(=O)OCCC/C(=C\c1ccc2ccccc2c1)[N+](=O)[O-] | NCI-H226 lung | 4.16 µM
Cn1cc(-c2csc(-c3cn(CCN4CCOCC4)c4ccc(F)cc34)n2)c2cccnc21 | NCI-H226 lung | 5.51 µM
Cn1cc2ccccc2c1-c1nc(F)nc(Oc2ccc3c(c2)CC[C@@H]2C3CC[C@]3(C)C(O)CCC23)n1 (stereo partly specified) | NCI-H226 lung | > 100 µM
O=C1Nc2ccccc2NC1C1OC(c2ccccc2)=CC1=O (stereo unspecified) | NCI-H226 lung | > 100 µM
CN(C)CCCNC(=O)c1cc(NC(=O)c2cc(NC(=O)c3cc(NC(=O)CCCn4ccc(CO)c4CO)cn3C)cn2C)cn1C | NCI-H226 lung | 13.9 µM
O=C1CCC2=C(CCC2)N1CCc1ccc2c(c1)OCO2 | NCI-H226 lung | > 100 µM
CCOC(=O)N(CC)c1c(C(F)(F)F)cc(-c2ccccc2)[nH]c1=O | NCI-H226 lung | > 100 µM
